system: SW1271 complex spheroids with HUVEC/MSC, growth, % test/control; assay: Anticancer human tumor SW1271 cell line growth inhibition [AhR]; details: second compound 1 µM; first compound 0.949 µM; active compounds read low;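 further: spheroids exposed to agents for 7 days before readout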
ASSAY READOUT: viability, T/C

Examples from the recorded data:
CCN(c1cc(-c2ccc(CN3CCOCC3)cc2)cc(C(=O)NCc2c(C)cc(C)[nH]c2=O)c1C)C1CCOCC1 + CC(CO)NC(=O)c1cc(-c2ccc(Cl)cc2)nn(-c2cnn(C)c2)c1=O: 105%
O=C(C=Cn1cnc(-c2cc(C(F)(F)F)cc(C(F)(F)F)c2)n1)NNc1cnccn1 + CC(CO)NC(=O)c1cc(-c2ccc(Cl)cc2)nn(-c2cnn(C)c2)c1=O: 44%
CCN(c1cc(-c2ccc(CN3CCOCC3)cc2)cc(C(=O)NCc2c(C)cc(C)[nH]c2=O)c1C)C1CCOCC1 + Cc1ccccc1N=Nc1ccc(NC(=O)c2ccnn2C)c(C)c1: 98%
O=C(C=Cn1cnc(-c2cc(C(F)(F)F)cc(C(F)(F)F)c2)n1)NNc1cnccn1 + Cc1cncc(-c2nc(NCCc3c[nH]c4ccccc34)c3ncn(C(C)C)c3n2)c1: 62.8%
O=C(C=Cn1cnc(-c2cc(C(F)(F)F)cc(C(F)(F)F)c2)n1)NNc1cnccn1 + Cc1ccccc1N=Nc1ccc(NC(=O)c2ccnn2C)c(C)c1: 59.4%

We now examine a further compound.
Task: Recorded viability, T/C for CCN(c1cc(-c2ccc(CN3CCOCC3)cc2)cc(C(=O)NCc2c(C)cc(C)[nH]c2=O)c1C)C1CCOCC1 + Cc1cncc(-c2nc(NCCc3c[nH]c4ccccc34)c3ncn(C(C)C)c3n2)c1 , please?
Output: 106%

* * *

Recorded viability, T/C, one value per entry.
tested on: SW1271 complex spheroids with HUVEC/MSC, growth, % test/control; assay: Anticancer human tumor SW1271 cell line growth inhibition [AhR]; conditions: second compound 10 µM; first compound 0.000949 µM; active compounds read low;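 further: spheroids exposed to agents for 7 days before readout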

Examples from the recorded data:
CC(C)CC(NC(=O)C(Cc1ccccc1)NC(=O)c1cnccn1)B(O)O (stereo unspecified) + CC(CO)NC(=O)c1cc(-c2ccc(Cl)cc2)nn(-c2cnn(C)c2)c1=O: 73.6%
Nc1ncn(C2CC(O)C(CO)S2)c(=O)n1 (stereo unspecified) + Cc1cncc(-c2nc(NCCc3c[nH]c4ccccc34)c3ncn(C(C)C)c3n2)c1: 45.5%
CC(C)CC(NC(=O)C(Cc1ccccc1)NC(=O)c1cnccn1)B(O)O (stereo unspecified) + Cc1ccccc1N=Nc1ccc(NC(=O)c2ccnn2C)c(C)c1: 93.1%
CCc1c2c(nc3ccc(O)cc13)-c1cc3c(c(=O)n1C2)COC(=O)[C@]3(O)CC + Cc1ccccc1N=Nc1ccc(NC(=O)c2ccnn2C)c(C)c1: 82%
CC(C)CC(NC(=O)C(Cc1ccccc1)NC(=O)c1cnccn1)B(O)O (stereo unspecified) + Cc1cncc(-c2nc(NCCc3c[nH]c4ccccc34)c3ncn(C(C)C)c3n2)c1: 62.2%

We now examine a further compound.
Task: Recorded viability, T/C for CCc1c2c(nc3ccc(O)cc13)-c1cc3c(c(=O)n1C2)COC(=O)[C@]3(O)CC + Cc1cncc(-c2nc(NCCc3c[nH]c4ccccc34)c3ncn(C(C)C)c3n2)c1 , please?
Output: 55.5%

* * *

system: SW1271 complex spheroids with HUVEC/MSC, growth, % test/control; assay: Anticancer human tumor SW1271 cell line growth inhibition [AhR]; details: second compound 0.316 µM; first compound 3.16 µM; active means viability on the fitted dose curve at most 10% of control; inactive means the rest;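 further: spheroids exposed to agents for 7 days before readout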
Answer with one of the outcomes Yes (active), No (inactive)

NS(=O)(=O)OCC1CC(n2ccc3c(NC4CCc5ccccc54)ncnc32)CC1O (centres undefined) + Cc1cncc(-c2nc(NCCc3c[nH]c4ccccc34)c3ncn(C(C)C)c3n2)c1: No
COc1cc(Nc2ncc3c(n2)-c2ccc(Cl)cc2C(c2c(F)cccc2OC)=NC3)ccc1C(=O)O + Cc1ccccc1N=Nc1ccc(NC(=O)c2ccnn2C)c(C)c1: No

Task: Check the results log: what was the call for CC1COCCN1c1cc(C2(S(C)(=N)=O)CC2)nc(-c2ccnc3[nH]ccc23)n1 (centres undefined) + Cc1ccccc1N=Nc1ccc(NC(=O)c2ccnn2C)c(C)c1 ?
Output: No

Task: Check the results log: what was the call for CC1COCCN1c1cc(C2(S(C)(=N)=O)CC2)nc(-c2ccnc3[nH]ccc23)n1 (centres undefined) + CC(CO)NC(=O)c1cc(-c2ccc(Cl)cc2)nn(-c2cnn(C)c2)c1=O ?
Output: No

Task: Check the results log: what was the call for O=C(C=Cc1cccc(S(=O)(=O)Nc2ccccc2)c1)NO + Cc1ccccc1N=Nc1ccc(NC(=O)c2ccnn2C)c(C)c1 ?
Output: No

Task: Check the results log: what was the call for COc1cc(Nc2ncc3c(n2)-c2ccc(Cl)cc2C(c2c(F)cccc2OC)=NC3)ccc1C(=O)O + Cc1cncc(-c2nc(NCCc3c[nH]c4ccccc34)c3ncn(C(C)C)c3n2)c1 ?
Output: No

Task: Check the results log: what was the call for Nc1ccccc1NC(=O)c1ccc(CNC(=O)OCc2cccnc2)cc1 + Cc1ccccc1N=Nc1ccc(NC(=O)c2ccnn2C)c(C)c1 ?
Output: No

Task: Check the results log: what was the call for COc1ccc([C@@H](O)c2cc(-c3ncnc4cc(N5CCOCC5)ccc34)c(F)cc2Cl)nn1 + Cc1cncc(-c2nc(NCCc3c[nH]c4ccccc34)c3ncn(C(C)C)c3n2)c1 ?
Output: No
